assay: Pharmacokinetics and oral bioavailability in the mouse; format: in vivo; settings: oral 10 mg/kg, mean
Listed here: items and their measured C-max (oral).
Express it in µM; write the number only.

> print(dat)
                                   molecule  measured.number
1  Cn1c2cc(F)cc(C(N)=O)c2c(=O)n1C1CCN(C2CCCCC2)CC1             4.72

Quick check: C-max (oral) of Cn1c2cccc(C(N)=O)c2c(=O)n1C1CCN(CC2CC=CCC2)CC1 (centres unmarked) ?
1.93

Which C-max (oral) reading was recorded for the molecule `Cn1c2cccc(C(N)=O)c2c(=O)n1C1CCN(C2CCC(F)(F)CC2)CC1` ?
3.07

What value of measured C-max (oral) is listed for `NC(=O)c1cccc2[nH]n(C3CCN(C4CCCCC4)CC3)c(=O)c12` ?
5.6

Which C-max (oral) reading was recorded for the molecule `Cn1c2cccc(C(N)=O)c2c(=O)n1C1CCN(C2CCCCC2)CC1` ?
4.77

The origin of these recorded values is patent US9073893B2.
